Data origin: paper PMC12060307

# Tested on: MPJSBWMV:GFP (movement protein, GFP fusion, in leaf extract) (Japanese soil-borne wheat mosaic virus)
# test summary: MST
# condition notes: MST in leaf extract: extraction in 2x MST buffer (100 mM Tris-HCl pH 7.5, 300 mM NaCl, 10 mM MgCl2, 0.1% Tween-20, 0.1 mg/mL BSA, 10 mM DTT, protease …)
Listed here: items and their measured pKd.
# pKd is unitless: minus log10 of the molar concentration; print number only

{"columns": ["substance", "quantity kind", "number"],
 "data": [
  ["RNA2JSBWMV", "pKd", 8.35],
  ["RNA1JSBWMV", "pKd", 7.81],
  ["tRNA2JSBWMV (tRNA-like structure of RNA2)", "pKd", 7.55]
]}

Proceeding to the next substance to report its pKd.
Per the record, tRNA1JSBWMV (tRNA-like structure of RNA1) has pKd of 7.79
